Target Under Test: Recombinant IKKβ (Homo sapiens)
Construct: purchased Millipore, Dundee, UK
Sequence (O14920 whole entry): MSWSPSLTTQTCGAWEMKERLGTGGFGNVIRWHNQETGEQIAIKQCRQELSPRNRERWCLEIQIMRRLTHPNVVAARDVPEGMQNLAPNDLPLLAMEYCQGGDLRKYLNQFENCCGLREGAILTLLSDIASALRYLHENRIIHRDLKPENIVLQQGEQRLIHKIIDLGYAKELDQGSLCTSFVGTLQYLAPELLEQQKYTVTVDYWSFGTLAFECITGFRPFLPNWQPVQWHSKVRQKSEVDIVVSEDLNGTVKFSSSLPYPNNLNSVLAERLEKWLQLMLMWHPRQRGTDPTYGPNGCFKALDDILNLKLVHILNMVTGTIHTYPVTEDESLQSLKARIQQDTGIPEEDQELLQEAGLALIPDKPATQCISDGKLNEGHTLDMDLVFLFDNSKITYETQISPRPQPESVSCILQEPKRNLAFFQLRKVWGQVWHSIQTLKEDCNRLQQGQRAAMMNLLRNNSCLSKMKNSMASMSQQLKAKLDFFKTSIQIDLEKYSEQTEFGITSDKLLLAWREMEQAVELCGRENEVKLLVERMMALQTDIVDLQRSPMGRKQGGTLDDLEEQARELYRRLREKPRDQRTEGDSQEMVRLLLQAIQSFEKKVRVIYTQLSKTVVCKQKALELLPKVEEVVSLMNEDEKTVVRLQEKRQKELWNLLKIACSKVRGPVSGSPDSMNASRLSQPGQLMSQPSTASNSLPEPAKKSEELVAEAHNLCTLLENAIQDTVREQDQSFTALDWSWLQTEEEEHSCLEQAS
Procedure Details: DELFIA IKKβ kinase assay (apparent Ki, Cheng-Prusoff)
Format: biochemical
Run Conditions: DELFIA assay (first line of an example)
Catalogue of compounds with associated Ki

Compound	Qualifying Sign	Ki (µM)
CCOC(=O)c1cc2c(-c3ccc4[nH]nc(N)c4c3)ccnc2[nH]1 [Example 232]	=	1.26
Nc1n[nH]c2ccc(-c3ccnc4[nH]c(C5CCCCC5)cc34)cc12 [Example 219]	=	0.461
Nc1n[nH]c2ccc(-c3ccnc4[nH]c(CN5CCCCCC5)cc34)cc12 [Example 265]	=	2.51
CC(C)(C)C#Cc1cc(-c2ccnc3[nH]c(CC4CCCCC4)cc23)cc2c(N)n[nH]c12 [Example 278]	>	10
CC(C)(O)c1cc2c(-c3ccc4[nH]nc(N)c4c3)ccnc2[nH]1 [Example 225]	=	0.419
CN1CCCN(Cc2cc3c(-c4ccc5[nH]nc(N)c5c4)ccnc3[nH]2)CC1 [Example 266]	=	1.8
Nc1n[nH]c2ccc(-c3ccnc4[nH]c(CC5CCN(Cc6ccccc6)CC5)cc34)cc12 [Example 273]	=	0.2
Nc1n[nH]c2ccc(-c3ccnc4[nH]c(CCN5CCOCC5)cc34)cc12 [Example 268]	=	0.251
CN(C)CCNCc1cc2c(-c3ccc4[nH]nc(N)c4c3)ccnc2[nH]1 [Example 255]	=	1.63
Cc1cc(Nc2cc(-c3cc(C#CC(C)(C)C)c4[nH]nc(N)c4c3)ccn2)n[nH]1 [Example 312]	=	0.21
CC(C)(C)C#Cc1cc(-c2ccnc(Nc3nccs3)c2)cc2c(N)n[nH]c12 [Example 314]	≥	10
CC(C)(C)C#Cc1cc(-c2ccnc3[nH]c(C4CCC4)nc23)cc2c(N)n[nH]c12 [Example 301]	=	1.24
Nc1n[nH]c2ccc(-c3ccnc4[nH]c(C(=O)NCCCc5ccccc5)cc34)cc12 [Example 239]	=	0.06
COC(=O)Nc1cc(-c2cc(-c3ccc(CN4CCOCC4)cc3)c3[nH]nc(N)c3c2)ccn1 [Example 328]	=	0.407
CN(C)CCNC(=O)c1cc2c(-c3ccc4[nH]nc(N)c4c3)ccnc2[nH]1 [Example 242]	=	0.377
Nc1n[nH]c2c(C#CCCOc3ccccc3)cc(-c3ccnc4[nH]ccc34)cc12 [Example 216]	=	0.081
Nc1n[nH]c2c(Cl)cc(-c3ccnc4[nH]c(C(=O)NCCN5CCCCC5)cc34)cc12 [Example 274]	=	0.126

* * *

Target Under Test: Recombinant IKKβ (Homo sapiens)
Construct: purchased Millipore, Dundee, UK
Procedure Details: DELFIA IKKβ kinase assay (apparent Ki, Cheng-Prusoff)
Format: biochemical
Run Conditions: non-italicised figure: DELFIA assay
pKi: −log10 of the molar value.
Threshold rule: pKi greater than or equal to 6 is rule met; below that, rule not met.

Molecule	Discrete Label
C#Cc1cc(-c2ccnc3[nH]ccc23)cc2c(N)n[nH]c12 [Example 6]	rule met
Nc1cc(-c2cc(C#Cc3ccccc3)c3[nH]nc(N)c3c2)ccn1 [Example 138]	rule not met
Nc1cc(-c2cc(-c3ccn[nH]3)c3[nH]nc(N)c3c2)ccn1 [Example 133]	rule met
Nc1cc(-c2cc(-c3ccsc3)c3[nH]nc(N)c3c2)ccn1 [Example 130]	rule met
CC(C)C(=O)Nc1cc(-c2cc(C#CC(C)(C)C)c3[nH]nc(N)c3c2)ccn1 [Example 168]	rule not met

Cited source for all entries: patent US20250304576A1
